Ref: patent US7135466B2

Tgt: c-kit (Homo sapiens, UniProt P10721)
Construct: MO7e (human megakaryocytic leukemia cell line) which had been arrested for 20 hr; endogenous in cells; host or cells: MO7e human megakaryocytic leukemia cell line
Sequence (P10721 26-976): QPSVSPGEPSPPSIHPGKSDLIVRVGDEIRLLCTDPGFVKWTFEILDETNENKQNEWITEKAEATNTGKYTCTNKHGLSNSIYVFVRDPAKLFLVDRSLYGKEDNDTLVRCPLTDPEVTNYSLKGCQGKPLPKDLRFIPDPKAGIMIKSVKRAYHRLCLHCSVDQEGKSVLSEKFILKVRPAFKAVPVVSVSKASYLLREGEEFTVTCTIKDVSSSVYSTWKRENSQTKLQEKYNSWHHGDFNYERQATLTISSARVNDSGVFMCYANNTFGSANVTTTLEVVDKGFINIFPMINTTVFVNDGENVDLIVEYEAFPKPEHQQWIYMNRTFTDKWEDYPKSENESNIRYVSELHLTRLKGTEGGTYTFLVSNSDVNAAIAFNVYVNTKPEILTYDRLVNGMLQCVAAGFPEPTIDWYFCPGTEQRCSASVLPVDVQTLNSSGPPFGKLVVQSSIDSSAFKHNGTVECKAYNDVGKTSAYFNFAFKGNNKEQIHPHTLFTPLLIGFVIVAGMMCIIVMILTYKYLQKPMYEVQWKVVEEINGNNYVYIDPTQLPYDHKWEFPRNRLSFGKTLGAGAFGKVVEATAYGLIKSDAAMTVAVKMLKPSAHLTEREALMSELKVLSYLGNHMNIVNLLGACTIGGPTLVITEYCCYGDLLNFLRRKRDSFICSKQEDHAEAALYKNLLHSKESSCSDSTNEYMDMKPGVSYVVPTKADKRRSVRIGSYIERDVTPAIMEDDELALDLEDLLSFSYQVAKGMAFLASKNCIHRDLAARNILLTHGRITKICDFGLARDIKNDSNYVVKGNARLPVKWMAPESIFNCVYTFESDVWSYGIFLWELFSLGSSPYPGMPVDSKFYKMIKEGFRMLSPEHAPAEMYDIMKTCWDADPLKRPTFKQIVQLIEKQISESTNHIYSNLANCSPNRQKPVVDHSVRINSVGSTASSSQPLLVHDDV
Protocol Details: Inhibitory activity against c-kit autophosphorylation (MO7e cells, h-SCF)
Format: cell-based
Run Conditions: MO7e cells, h-SCF 50 ng/ml; read-out: c-kit IC50
Quantity Kind: IC50 (nM)
# output: bare number, implied unit nM

Worked cases, IC50 given:
{"Entry Smiles": "CCCCc1ccc(OC(=O)Nc2ccc(Oc3ccnc4cc(OC)c(OC)cc34)c(C)c2C)cc1", "IC50 (nM)": 107}
{"Entry Smiles": "COc1cc2nccc(Oc3cc(C)c(NC(=O)OCCCSc4ccccn4)cc3C)c2cc1OC", "IC50 (nM)": 70}
{"Entry Smiles": "COc1cc2nccc(Oc3cc(C)c(NC(=O)OCC4CCCCC4)cc3C)c2cc1OC", "IC50 (nM)": 269}

For the next question, use this compound.
## Task Consider the compound COc1cc2ncnc(Oc3ccc(NC(=O)OCCCSc4ccc(Cl)cc4C)c(Cl)c3)c2cc1OC and give its measured IC50.
## Result 408

----------
In this section we review reported inhibition at 1 µM values for a set of compounds.
Tgt: c-kit (Homo sapiens)
Construct: MO7e (human megakaryocytic leukemia cell line) which had been arrested for 20 hr; endogenous in cells; host or cells: MO7e human megakaryocytic leukemia cell line
Protocol Details: Inhibitory activity against c-kit autophosphorylation (MO7e cells, h-SCF)
Assay type: cell-based
Run Conditions: Mo7e, figure in parentheses in −( ); at 1000 nM
I only need the number, in %, no unit after it.

{"Entry Smiles": "COc1cc2nccc(Oc3ccc(NC(=S)NC(=O)c4ccccc4C)cc3Cl)c2cc1OC", "Readout Value": 11}
{"Entry Smiles": "COc1cc2nccc(Oc3ccc(NC(=S)NC(=O)c4ccc([N+](=O)[O-])cc4)c(C)c3C)c2cc1OC", "Readout Value": 47}
{"Entry Smiles": "COc1cc2ncnc(Oc3ccc(NC(=O)OCc4ccc(C(C)(C)C)cc4)c(Cl)c3)c2cc1OC", "Readout Value": 32}

We next turn to a different compound, shown below.
## Task Find inhibition at 1 µM (c-kit (Homo sapiens)) for the entry COc1ccccc1COC(=O)Nc1ccc(Oc2ncnc3cc(OC)c(OC)cc23)cc1Cl
## Result 40

----------
The entries below come with measured pIC50 values attached.
Tgt: PDGF-Ra (Homo sapiens)
Construct: host or cells: G-292 human osteosarcoma cells
Sequence (P16234 24-1089): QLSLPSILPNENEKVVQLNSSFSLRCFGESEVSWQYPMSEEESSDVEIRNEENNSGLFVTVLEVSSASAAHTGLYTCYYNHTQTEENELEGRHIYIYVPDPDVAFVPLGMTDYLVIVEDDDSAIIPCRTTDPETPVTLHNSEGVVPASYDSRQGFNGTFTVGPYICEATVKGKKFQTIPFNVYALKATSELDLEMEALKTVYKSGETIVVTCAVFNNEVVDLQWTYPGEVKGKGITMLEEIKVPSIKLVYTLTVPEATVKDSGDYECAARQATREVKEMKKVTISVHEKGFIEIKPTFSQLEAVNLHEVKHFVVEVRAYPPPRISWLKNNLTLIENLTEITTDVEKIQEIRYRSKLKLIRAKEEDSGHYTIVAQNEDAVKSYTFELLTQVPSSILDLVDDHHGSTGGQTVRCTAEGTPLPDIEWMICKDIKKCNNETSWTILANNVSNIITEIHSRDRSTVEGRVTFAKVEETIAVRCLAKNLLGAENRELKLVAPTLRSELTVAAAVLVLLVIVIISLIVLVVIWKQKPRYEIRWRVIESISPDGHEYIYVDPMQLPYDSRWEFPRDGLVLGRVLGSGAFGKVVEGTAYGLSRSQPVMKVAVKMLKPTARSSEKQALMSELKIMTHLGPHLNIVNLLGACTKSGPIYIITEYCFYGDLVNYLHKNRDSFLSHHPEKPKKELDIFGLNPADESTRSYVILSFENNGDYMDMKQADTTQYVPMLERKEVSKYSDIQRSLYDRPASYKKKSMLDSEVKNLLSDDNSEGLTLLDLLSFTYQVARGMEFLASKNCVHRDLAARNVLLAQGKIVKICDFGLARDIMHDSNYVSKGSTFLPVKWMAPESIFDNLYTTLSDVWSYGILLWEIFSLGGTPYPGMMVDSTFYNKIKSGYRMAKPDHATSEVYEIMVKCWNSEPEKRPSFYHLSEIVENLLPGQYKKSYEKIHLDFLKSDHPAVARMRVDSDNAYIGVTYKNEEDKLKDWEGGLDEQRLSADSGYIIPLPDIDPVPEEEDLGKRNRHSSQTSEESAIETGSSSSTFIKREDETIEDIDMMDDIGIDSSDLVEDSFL
Protocol Details: Inhibitory activity against PDGF-Ra phosphorylation by PDGF-AA stimulation using G292
Format: cell-based
Run Conditions: > means inhibition at indicated concentration not more than 50%, < and << not less than 50%; read-out: PDGF (E) IC50
Keep in mind that pIC50 stands for -log10 of concentration in molar terms.

{"Entry Smiles": "COc1cc2nccc(Oc3ccc(NC(=S)NC(=O)Cc4ccccc4)cc3F)c2cc1OC", "pIC50": 7.77}
{"Entry Smiles": "CCOC(=O)CCC(=O)NC(=S)Nc1ccc(Oc2ncnc3cc(OC)c(OC)cc23)cc1", "pIC50": 7.11}
{"Entry Smiles": "COc1cc2nccc(Oc3ccc(NC(=S)NC(=O)COc4ccccc4)cc3Cl)c2cc1OC", "pIC50": 7.96}
{"Entry Smiles": "CCN(CC)CCNC(=O)Nc1ccc(Oc2ccnc3cc(OC)c(OC)cc23)c(C)c1", "pIC50": 7.80}
{"Entry Smiles": "CCN(CC)CCNC(=O)Nc1ccc(Oc2ccnc3cc(OC)c(OC)cc23)c(Cl)c1", "pIC50": 7.40}
{"Entry Smiles": "COc1cc2nccc(Oc3ccc(NC(=S)NC(=O)c4cccc(C)c4C)cc3)c2cc1OC", "pIC50": 7.55}
{"Entry Smiles": "COc1cc2nccc(Oc3ccc(NC(=S)NC(=O)C4(C)CCCCC4)cc3Cl)c2cc1OC", "pIC50": 7.72}
{"Entry Smiles": "COc1cc2nccc(Oc3ccc(NC(=S)NC(=O)c4ccc(CCl)cc4)c(F)c3)c2cc1OC", "pIC50": 7.28}

## Task // pIC50 lookup, key: COc1cc2ncnc(Oc3ccc(NC(=S)NC(=O)CCCc4ccccc4)cc3)c2cc1OC
## Result 7.92

## Task Sample CCN(C(=O)OC1CCCCC1)c1ccc(Oc2ncnc3cc(OC)c(OC)cc23)cc1Cl — what was its pIC50?
## Result 7.82
